kon values, listed per item
system_tested: T1, human PCSK9 (self-cleaved, mature, secreted PCSK9 comprising amino acids 31 to 692 of SEQ ID NO: 2) (human, UniProt Q8NBP7 31-692, biotinylated in the ELISAs)
T1 construct: Limits 31-692 are stated for the immunogen; the assays only say human PCSK9; also called huPCSK9; rhu PCSK9
experiment_notes: SPR pH 7.4;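 further: antibodies captured as ligand on the sensor surface, five analyte concentrations injected with buffer blanks, double-referenced data fit to a 1:1 binding model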
property_measured: kon (M⁻¹ s⁻¹)

>>> recorded_value("SS-15114 (antibody, V domains shown, 31H4 His variant: HC 39(32), 132(106), parental(113H)) VH: EVQLVESGGGLVKPGGSLRLSCAASGFTFSSHSMNWVRQAPGKGLEWVSSISSSSSYISYADSVKGRFTISRDNAKNSLYLQMNSLRAEDTAVYFCARDYDFHSAHYDAFDVWGQGTMVTVSS VL: ESVLTQPPSVSGAPGQRVTISCTGSSSNIGAGYDVHWYQQLPGTAPKLLISGNSNRPSGVPDRFSGSKSGTSASLAITGLQAEDEADYYCQSYDSSLSGSVFGGGTKLTVLG")
555000
>>> recorded_value("SS-15139 (antibody, V domains shown, 31H4 His variant: HC 72(62), 132(106), parental(113H)) VH: EVQLVESGGGLVKPGGSLRLSCAASGFTFSSYSMNWVRQAPGKGLEWVSSISSSSSYISYAHSVKGRFTISRDNAKNSLYLQMNSLRAEDTAVYFCARDYDFHSAHYDAFDVWGQGTMVTVSS VL: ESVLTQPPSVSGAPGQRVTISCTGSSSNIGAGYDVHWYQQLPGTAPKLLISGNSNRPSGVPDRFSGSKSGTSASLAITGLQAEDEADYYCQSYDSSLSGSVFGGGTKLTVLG")
"1.31e+06"
>>> recorded_value("SS-15124 (antibody, V domains shown, 31H4 His variant: HC 66(56), 70(60), parental(113H)) VH: EVQLVESGGGLVKPGGSLRLSCAASGFTFSSYSMNWVRQAPGKGLEWVSSISSSSHYISHADSVKGRFTISRDNAKNSLYLQMNSLRAEDTAVYFCARDYDFHSAYYDAFDVWGQGTMVTVSS VL: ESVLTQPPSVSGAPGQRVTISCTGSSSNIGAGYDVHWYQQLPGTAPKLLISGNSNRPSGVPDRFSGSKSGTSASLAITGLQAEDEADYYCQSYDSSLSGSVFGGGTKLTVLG")
"1.6e+06"
>>> recorded_value("SS-15087 (antibody, V domains shown) VH: EVQLVESGGGLVKPGGSLRLSCAASGFTFSSYSMNWVRQAPGKGLEWVSSISSSSSYISYADSVKGRFTISRDNAKNSLYLQMNSLRAEDTAVYFCARDYDFHSAHYDAFDVWGQGTMVTVSS VL: ESVLTQPPSVSGAPGQRVTISCTGSSSNIGAGYDVHWYQQLPGTAPKLLISGNSNRPSGVPDRFSGSKSGTSASLAITGLQAEDEADYYCQSYDSSLHGSVFGGGTKLTVLG")
"1.26e+06"
>>> recorded_value("SS-15121 (antibody, V domains shown, 31H4 His variant: HC 61(54), 132(106), parental(113H); parental LC) VH: EVQLVESGGGLVKPGGSLRLSCAASGFTFSSYSMNWVRQAPGKGLEWVSSISSHSSYISYADSVKGRFTISRDNAKNSLYLQMNSLRAEDTAVYFCARDYDFHSAHYDAFDVWGQGTMVTVSS VL: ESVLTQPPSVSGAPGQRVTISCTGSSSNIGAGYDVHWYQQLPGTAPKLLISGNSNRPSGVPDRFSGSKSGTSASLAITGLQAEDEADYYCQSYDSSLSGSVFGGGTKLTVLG")
"1.47e+06"
>>> recorded_value("SS-15132 (antibody, V domains shown, 31H4 His variant: HC 68(58), 132(106), parental(113H)) VH: EVQLVESGGGLVKPGGSLRLSCAASGFTFSSYSMNWVRQAPGKGLEWVSSISSSSSYHSYADSVKGRFTISRDNAKNSLYLQMNSLRAEDTAVYFCARDYDFHSAHYDAFDVWGQGTMVTVSS VL: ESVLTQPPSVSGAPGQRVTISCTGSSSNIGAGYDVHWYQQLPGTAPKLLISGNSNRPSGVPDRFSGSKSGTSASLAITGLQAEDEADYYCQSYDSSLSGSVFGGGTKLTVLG")
"1.24e+06"
>>> recorded_value("SS-15126 (antibody, V domains shown, 31H4 His variant: HC 66(56), 73(63), parental(113H)) VH: EVQLVESGGGLVKPGGSLRLSCAASGFTFSSYSMNWVRQAPGKGLEWVSSISSSSHYISYADHVKGRFTISRDNAKNSLYLQMNSLRAEDTAVYFCARDYDFHSAYYDAFDVWGQGTMVTVSS VL: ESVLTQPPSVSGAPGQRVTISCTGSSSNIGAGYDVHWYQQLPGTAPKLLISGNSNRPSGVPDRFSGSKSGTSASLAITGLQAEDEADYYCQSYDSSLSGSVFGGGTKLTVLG")
"1.5e+06"
